Organism: Homo sapiens
method.summary: Selectivity for human ganglionic alpha3beta4alpha5beta2 nAChR over human alpha4beta2 nAChR
Overview of reported Ratio IC50 across a group of molecules:

Field: example entries. Status: answers known.
Cc1cc([C@H]2[C@@H](c3ccc(Cl)c(C)c3)C[C@@H]3CC[C@H]2N3C)on1 : 10
Cc1cc([C@H]2C[C@@H]3CC[C@H]([C@H]2c2cc(-c4ccccc4)no2)N3C)ccc1Cl : 10
Cc1cc2nc([C@H]3[C@@H](c4ccc(Cl)cc4)C[C@@H]4CC[C@H]3N4C)[nH]c2cc1C : 3
COc1ccc(-c2cc([C@H]3[C@@H](c4ccc(Cl)cc4)C[C@@H]4CC[C@H]3N4C)on2)cc1 : 8

Next molecule, Ratio IC50 to be filled in.
Entry under test: "COC(=O)[C@H]1[C@@H](c2ccc(Cl)c(C)c2)C[C@@H]2CC[C@H]1N2C" . Its Ratio IC50 was 3

* * *

Overview of reported IC50 across a group of compounds:
Test system: Mus musculus
method.summary: Inhibition of nicotine-induced antinociception activity in ICR mouse assessed as paw licking and jumping latency dministered subcutaneously 15 mins prior to nicotine challenge and measured after 5 mins of 2.5 mg/kg nicotine challenge by hot plate test
Format: functional, organism-based
Design: dose 2.5 mg/kg, route subcutaneous

Field: example entries. Status: answers known.
Cc1cc([C@H]2C[C@@H]3CC[C@H]([C@H]2c2cc(-c4ccccc4)no2)N3C)ccc1Cl : > 20 mg/kg
Cc1ccc([C@H]2C[C@@H]3CC[C@H]([C@H]2c2cc(-c4ccc(Cl)cc4)no2)N3C)cc1 : > 20 mg/kg
Cc1ccc([C@H]2C[C@@H]3CC[C@H]([C@H]2C(=O)OC2CCC2)N3C)cc1 : 9.8 mg/kg

Next compound, IC50 to be filled in.
// IC50 (Mus musculus) for "COC(=O)[C@H]1[C@@H](c2ccc(Cl)c(C)c2)C[C@@H]2CC[C@H]1N2" = 0.78 mg/kg

* * *

test.system: Neuronal acetylcholine receptor; alpha4/beta4 (Homo sapiens, UniProt P30926+P43681)
method.summary: Agonist activity against human alpha4beta4 nAChR in SHEP1 cells assessed as 86Rb+ efflux at 5 nM to 100 uM
Format: functional, cell-based
Active and inactive are the calls of the source. The calls are words filed in the database; no cut-off is given here.
measured.property: Activity

COC(=O)[C@H]1[C@@H](c2ccc(Cl)c(C)c2)C[C@@H]2CC[C@H]1N2C : inactive
COC(=O)[C@H]1[C@@H](c2ccc(Cl)c(C)c2)C[C@@H]2CC[C@H]1N2 : inactive
COC(=O)[C@@H]1[C@H]2CC[C@@H](C[C@H]1c1ccc(Cl)c(C)c1)N2C : inactive
Cc1cc([C@H]2C[C@@H]3CC[C@H]([C@H]2c2cc(-c4ccccc4)no2)N3C)ccc1Cl : inactive

* * *

test.system: Neuronal acetylcholine receptor; alpha4/beta4 (Homo sapiens, UniProt P30926+P43681)
method.summary: Agonist activity against human alpha4beta4 nAChR in SHEP1 cells assessed as 86Rb+ efflux at 5 nM to 100 uM
Assay type: functional, cell-based
The source made the active and inactive calls. The rule behind the calls is not given here.
measured.property: Activity

Field: example entries. Status: answers known.
CCc1cc([C@H]2[C@@H](c3ccc(C)cc3)C[C@@H]3CC[C@H]2N3C)on1 : inactive
Cc1ccc([C@H]2C[C@@H]3CC[C@H]([C@H]2C(=O)OC(C)C)N3C)cc1 : inactive
COc1ccc(-c2cc([C@H]3[C@@H](c4ccc(Cl)cc4)C[C@@H]4CC[C@H]3N4C)on2)cc1 : inactive
Cc1ccc([C@H]2C[C@@H]3CC[C@H]([C@H]2c2cc(-c4ccc(Cl)cc4)no2)N3C)cc1 : inactive

Entry under test: "Cc1cc([C@H]2[C@@H](c3ccc(Cl)c(C)c3)C[C@@H]3CC[C@H]2N3C)on1" . Its Activity was inactive
